Target: Calcium/calmodulin-dependent protein kinase type II subunit alpha (Homo sapiens) (UniProt Q9UQM7);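 note: reported value is a mean percent inhibition of CAMK2A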
Sequence (Q9UQM7 whole entry): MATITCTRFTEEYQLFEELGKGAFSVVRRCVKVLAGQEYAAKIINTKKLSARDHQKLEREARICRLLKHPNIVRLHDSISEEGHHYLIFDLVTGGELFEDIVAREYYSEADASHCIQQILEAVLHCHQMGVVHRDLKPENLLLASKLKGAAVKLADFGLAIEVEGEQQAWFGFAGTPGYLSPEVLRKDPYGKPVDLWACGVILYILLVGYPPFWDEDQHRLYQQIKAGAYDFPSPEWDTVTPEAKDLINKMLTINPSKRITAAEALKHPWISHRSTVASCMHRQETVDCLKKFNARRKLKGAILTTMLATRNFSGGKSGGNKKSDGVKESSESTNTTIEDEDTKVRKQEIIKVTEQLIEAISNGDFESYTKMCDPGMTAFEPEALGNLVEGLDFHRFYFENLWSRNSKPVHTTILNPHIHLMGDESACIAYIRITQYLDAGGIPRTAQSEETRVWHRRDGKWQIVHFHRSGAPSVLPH
Settings: at 1 µM
Measured inhibition accompanies every entry in the list below.
Metric: inhibition (%)

1. O=C(Nc1n[nH]c2nc(-c3ccc(O)cc3)c(Br)cc12)C1CC1 : 8.39
2. FC(F)(F)c1cccc(Nc2nccc(-c3cnn4nc(-c5ccccc5)ccc34)n2)c1 : -0.96
3. NC(=O)c1cc(-c2ccc(F)cc2)cc(-c2ccncc2)c1N : 3.68
4. NS(=O)(=O)c1ccc(N/N=C2\C(=O)Nc3ccc(-c4cnco4)cc32)cc1 : 4.17
5. CN1CCN(CCCNc2nc3ccc(Oc4ccc(NC(=O)Nc5cc(C(F)(F)F)ccc5F)cc4)cc3[nH]2)CC1 : 7.84
6. C#Cc1cccc(Nc2ncnc3ccc(OCCCCNCCS(C)(=O)=O)cc23)c1 : 3.33

* * *

Measured inhibition accompanies every entry in the list below.
Molecular target: RAF proto-oncogene serine/threonine-protein kinase (Homo sapiens);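 note: values are mean CRAF kinase inhibition from profiling of the GSK Published Kinase Inhibitor Set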
Conditions: at 0.1 µM
Metric: inhibition (%)

1) Clc1ccc(CNc2nccc(-c3cnn4ncccc34)n2)cc1 : 1.36
2) c1ccc(-c2n[nH]cc2-c2ccnc(-c3ccc(OCCN4CCOCC4)cc3)c2)nc1 : -0.28
3) O=C(Nc1n[nH]c2nc(-c3ccc(O)cc3)c(Br)cc12)C1CC1 : -1.54
4) NS(=O)(=O)c1ccc(Nc2cc(-c3ccc(O)c(F)c3)n[nH]2)cc1 : -4.11
5) O=C(NCC1CC1)c1ccc(-c2cccc(C(=O)NC3CC3)c2)cc1 : 5.36
6) COc1cc(C)c(N(C)C(=O)CN(C)C)cc1Nc1nc(Nc2cccc(F)c2C(N)=O)c2cc[nH]c2n1 : -0.36
7) COC(=O)Nc1nc2ccc(Sc3ccc(NC(=O)Nc4cc(C(F)(F)F)ccc4F)cc3)cc2[nH]1 : -1.08
8) COc1cc(Nc2ncc3c(C)nc(-c4cccc(C(F)(F)F)c4)n3n2)cc(OC)c1OC : 3.02
9) CS(=O)(=O)CCNCc1cc(-c2cc3c(Nc4ccc(OCc5cccc(F)c5)c(Cl)c4)ncnc3s2)cs1 : 2.35

* * *

Measured inhibition accompanies every entry in the list below.
Target: Ephrin type-A receptor 3 (Homo sapiens);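 note: values are mean inhibition of EPHA3, from the GSK PKIS dataset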
Sequence (whole entry): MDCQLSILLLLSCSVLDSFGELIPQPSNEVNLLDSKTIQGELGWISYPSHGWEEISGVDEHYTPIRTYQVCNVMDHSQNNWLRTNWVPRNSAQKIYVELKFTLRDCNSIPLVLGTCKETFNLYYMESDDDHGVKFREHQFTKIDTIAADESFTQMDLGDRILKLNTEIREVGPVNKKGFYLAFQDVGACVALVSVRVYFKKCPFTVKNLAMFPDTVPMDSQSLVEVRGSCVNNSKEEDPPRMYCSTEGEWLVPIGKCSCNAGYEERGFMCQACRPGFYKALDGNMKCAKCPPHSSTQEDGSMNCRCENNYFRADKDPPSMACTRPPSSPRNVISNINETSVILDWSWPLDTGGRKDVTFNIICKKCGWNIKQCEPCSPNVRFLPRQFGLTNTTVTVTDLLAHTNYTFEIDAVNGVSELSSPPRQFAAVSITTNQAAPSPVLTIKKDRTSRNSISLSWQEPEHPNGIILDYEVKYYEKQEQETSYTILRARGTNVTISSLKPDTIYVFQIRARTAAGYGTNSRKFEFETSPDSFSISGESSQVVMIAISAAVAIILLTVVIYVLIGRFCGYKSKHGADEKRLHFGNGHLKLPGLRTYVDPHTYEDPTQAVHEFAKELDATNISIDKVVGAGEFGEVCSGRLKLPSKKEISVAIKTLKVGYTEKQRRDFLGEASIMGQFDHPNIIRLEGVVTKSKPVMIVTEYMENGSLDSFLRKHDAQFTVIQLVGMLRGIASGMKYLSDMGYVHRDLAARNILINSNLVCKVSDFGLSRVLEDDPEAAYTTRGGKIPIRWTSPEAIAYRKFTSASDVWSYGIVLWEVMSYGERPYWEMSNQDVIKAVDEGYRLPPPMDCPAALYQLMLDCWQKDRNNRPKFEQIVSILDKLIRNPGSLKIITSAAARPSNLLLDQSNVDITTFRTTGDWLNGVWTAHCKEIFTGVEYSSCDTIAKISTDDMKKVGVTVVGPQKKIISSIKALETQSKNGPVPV
Settings: at 0.1 µM
Metric: inhibition (%)

1. COc1cc2ncn(-c3cc(OCc4cccs4)c(C(N)=O)s3)c2cc1OC : -2.47
2. COc1cc(Nc2ncc3c(C)nc(-c4cccc(C(F)(F)F)c4)n3n2)cc(OC)c1OC : 6.02
3. CS(=O)(=O)CCNCc1ccc(-c2ccc3ncnc(Nc4ccc(OCc5ccccc5)c(Br)c4)c3c2)o1 : 1.29
4. COc1ccc2ncn(-c3cc(O[C@H](C)c4ccccc4Cl)c(C(N)=O)s3)c2c1 : -1.12
5. CN(C)CCCNc1nccc(-c2c(-c3ccc(F)cc3)nn3cc(C(F)(F)F)ccc23)n1 : 0.03
6. CCS(=O)(=O)c1ccc(OC)c(Nc2ncc(-c3ccccc3Cl)o2)c1 : 5.46
7. Clc1ccc(CNc2nccc(-c3cnn4ncccc34)n2)cc1 : 2.21
8. NC(=O)c1cc(-c2ccncc2)cc(-c2ccccc2)c1N : 5.37
9. NC(=O)Cc1ccccc1Oc1nccc(-c2c(-c3ccc(F)cc3)ncn2C2CCNCC2)n1 : 2.08
10. O=C1Nc2ccccc2/C1=C/Nc1ccc(-n2cncn2)cc1 : 2.74
